# System: USP1 (construct USP1 (I-785, GG670, 671AA)/UAF1 (I-677)-Flag) (Homo sapiens (Human), UniProt O94782, G670A/G671A)
# Sequence (O94782 whole entry G670A/G671A): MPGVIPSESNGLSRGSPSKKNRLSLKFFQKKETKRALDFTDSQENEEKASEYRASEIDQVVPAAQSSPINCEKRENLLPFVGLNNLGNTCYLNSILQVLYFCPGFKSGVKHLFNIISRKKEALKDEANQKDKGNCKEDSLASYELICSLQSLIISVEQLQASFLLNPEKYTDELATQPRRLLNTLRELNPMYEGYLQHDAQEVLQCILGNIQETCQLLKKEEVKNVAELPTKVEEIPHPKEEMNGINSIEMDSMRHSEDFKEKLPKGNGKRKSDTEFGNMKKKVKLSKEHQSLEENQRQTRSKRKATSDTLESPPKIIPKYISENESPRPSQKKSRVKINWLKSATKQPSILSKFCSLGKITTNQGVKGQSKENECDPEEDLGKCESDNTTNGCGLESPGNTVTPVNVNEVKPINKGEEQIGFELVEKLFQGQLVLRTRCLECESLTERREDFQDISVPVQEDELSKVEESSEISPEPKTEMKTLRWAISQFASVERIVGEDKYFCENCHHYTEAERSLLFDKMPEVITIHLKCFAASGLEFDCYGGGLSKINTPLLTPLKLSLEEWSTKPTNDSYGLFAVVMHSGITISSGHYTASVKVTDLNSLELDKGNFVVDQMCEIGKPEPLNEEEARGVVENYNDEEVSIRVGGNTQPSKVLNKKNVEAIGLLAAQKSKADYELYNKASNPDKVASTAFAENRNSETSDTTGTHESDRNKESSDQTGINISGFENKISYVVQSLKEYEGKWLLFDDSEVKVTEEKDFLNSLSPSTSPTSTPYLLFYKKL
# Sequence (Q8TAF3 whole entry partner): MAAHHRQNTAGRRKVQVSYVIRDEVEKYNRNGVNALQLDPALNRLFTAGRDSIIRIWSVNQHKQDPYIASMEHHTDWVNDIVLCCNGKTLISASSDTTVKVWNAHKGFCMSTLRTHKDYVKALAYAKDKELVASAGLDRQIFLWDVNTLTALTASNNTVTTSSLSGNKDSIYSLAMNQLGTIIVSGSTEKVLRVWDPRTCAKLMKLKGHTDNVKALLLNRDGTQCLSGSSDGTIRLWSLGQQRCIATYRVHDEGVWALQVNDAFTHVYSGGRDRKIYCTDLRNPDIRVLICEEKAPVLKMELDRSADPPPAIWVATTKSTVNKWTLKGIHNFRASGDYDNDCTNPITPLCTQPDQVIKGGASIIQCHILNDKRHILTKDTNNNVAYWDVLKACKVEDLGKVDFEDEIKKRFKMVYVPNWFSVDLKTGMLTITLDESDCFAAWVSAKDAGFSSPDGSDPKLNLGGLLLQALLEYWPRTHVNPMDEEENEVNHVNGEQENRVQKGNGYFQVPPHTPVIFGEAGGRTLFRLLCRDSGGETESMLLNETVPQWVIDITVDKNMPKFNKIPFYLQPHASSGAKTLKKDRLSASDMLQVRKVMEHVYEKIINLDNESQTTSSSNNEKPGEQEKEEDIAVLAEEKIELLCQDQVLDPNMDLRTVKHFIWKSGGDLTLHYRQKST
# Procedure Details: Ubiquitin-Rhodamine 110 assay for USP1 activity
# Condition Details: USP1/UAF1 25 pM, Ub-Rh110 25 nM, 30 min preincubation
pIC50: −log10 of the molar value.
Reported Endpoint: pIC50

• CC(C)c1ncccc1-c1ncc2[nH]c(=O)n(Cc3ccc(-n4ccc(F)n4)cc3)c2n1 = 6.70 to 7.30
• Cn1cc(C(F)(F)F)nc1-c1ccc(Cn2c(=O)[nH]c3cnc(-c4cccnc4N4CC(F)(F)C4)nc32)cc1 = > 7.30
• CC(C)c1ccccc1-c1ncc2[nH]c(=O)n(Cc3ccc(-c4ccnn4C)cc3)c2n1 = > 7.30

INPUT: Identify the reported pIC50 for the following entry. CC(C)c1ccccc1-c1ncc2[nH]c(=O)n(Cc3ccc(C(=O)N(C)Cc4ccc(F)cc4)cc3)c2n1
OUTPUT: 6.70 to 7.30

* * *

# System: USP1 (construct USP1 (I-785, GG670, 671AA)/UAF1 (I-677)-Flag) (Homo sapiens (Human), UniProt O94782, G670A/G671A)
# Procedure Details: Ubiquitin-Rhodamine 110 assay for USP1 activity
# Condition Details: USP1/UAF1 25 pM, Ub-Rh110 25 nM, 30 min preincubation
Reported Endpoint: IC50

Some molecules with known IC50 results, for comparison:
- CC(C)c1ccccc1-c1ncc2[nH]c(=O)n(Cc3ccc(-c4ncc[nH]4)cc3)c2n1 [Compound I-437]: < 0.05 µM
- CCN(CC)C(=O)c1ccc(Cn2c(=O)[nH]c3cnc(-c4ccccc4C(C)C)nc32)cc1 [Compound I-362]: < 0.05 µM
- CC(C)CNC(=O)c1ccc(Cn2c(=O)[nH]c3cnc(-c4ccccc4C(C)C)nc32)cc1 [Compound I-357]: 0.05 to 0.2 µM

INPUT: Identify the reported IC50 for the following entry. CC1CCN(C(=O)c2ccc(Cn3c(=O)[nH]c4cnc(-c5ccccc5C(C)C)nc43)cc2)CC1 [Compound I-366]
OUTPUT: 0.05 to 0.2 µM

INPUT: Identify the reported IC50 for the following entry. CC(C)c1ccccc1-c1ncc2[nH]c(=O)n([C@H](C)c3ccc(-n4nccn4)cc3)c2n1 [Compound I-142]
OUTPUT: 0.2 to 2 µM

INPUT: Identify the reported IC50 for the following entry. CC(C)c1ccccc1-c1ncc2[nH]c(=O)n(Cc3ccc(-n4ccc(C#N)n4)cc3)c2n1 [Compound I-196]
OUTPUT: < 0.05 µM

INPUT: Identify the reported IC50 for the following entry. CC(C)c1ccccc1-c1ncc2[nH]c(=O)n(Cc3ccc(-c4ncn(C)c4CO)cc3)c2n1 [Compound I-297]
OUTPUT: 0.2 to 2 µM

INPUT: Identify the reported IC50 for the following entry. CC(C)c1ccccc1-c1ncc2c(n1)n(Cc1ccc(-c3ncn(C)c3CO)cc1)c(=O)n2C [Compound I-288]
OUTPUT: 0.2 to 2 µM

INPUT: Identify the reported IC50 for the following entry. CC(C)c1ccccc1-c1ncc2[nH]c(=O)n(Cc3ccc(-c4cnn(C5CCOCC5)c4)cc3)c2n1 [Compound I-519]
OUTPUT: 0.2 to 2 µM

INPUT: Identify the reported IC50 for the following entry. COc1cc(C)n(-c2ccc(Cn3c(=O)n(C)c4cnc(-c5cccnc5C(C)C)nc43)cc2)n1 [Compound I-118]
OUTPUT: < 0.05 µM

INPUT: Identify the reported IC50 for the following entry. Cn1cc(C(F)(F)F)nc1-c1ccc(Cn2c(=O)[nH]c3cnc(-c4cccc5ccn(C)c45)nc32)cc1 [Compound I-45]
OUTPUT: < 0.05 µM

Data provenance: patent US10189841B2
